Entries and their growth values follow.
Tested on: HS 578T breast
Measurement Protocol: NCI-60 one-dose screen, 48 h (100 = growth as untreated, 0 = no growth, -100 = all killed)
Condition Set: 10 µM unless noted
This is part of a sample that, as a whole, favours compounds with a hit. Of some 83,000 tested, about 20% had one in any assay.
Quick note: give the figure in %, leave out the unit.

{"columns": ["Compound", "Quantitative Result"],
 "data": [
  ["c1ccc(-c2ccc3ccccc3c2)cc1", 84.5],
  ["CC(=O)OC(C)c1cccc(C#N)c1 (stereo not drawn)", 106],
  ["O=C(Nc1cccc(Cl)c1)c1ccc(Cl)cc1Cl", 92.7],
  ["FC(F)(F)c1cc(NC2=NCCN=C(Nc3cc(C(F)(F)F)cc(C(F)(F)F)c3)SS2)cc(C(F)(F)F)c1", 79.3],
  ["Cc1ccc(C)c2c1CCC2=O", 92.6],
  ["C=COC(=O)C(C)(C)C", 101]
]}

-- ask Give the observed growth of CCOC(=O)c1ccc(NC(C)=O)o1 for HS 578T breast.
-- reply 89.6

-- ask Give the observed growth of COc1ccc(NNS(=O)(=O)O)cc1 for HS 578T breast.
-- reply 92.2

-- ask Give the observed growth of CC(C)C1CCC(C)C(O)C1 (stereo not drawn) for HS 578T breast.
-- reply 93.5
